This collection of values is drawn from patent US20240182556A1.

CCL2 Expression as Percentage of Positive Control listing for selected binders.
target: human SCF248 (stem cell factor 248 isoform) expressed on mouse SI/SI4 cells (human), P21583; test: cell-based or functional assay
Sequence (P21583 26-273): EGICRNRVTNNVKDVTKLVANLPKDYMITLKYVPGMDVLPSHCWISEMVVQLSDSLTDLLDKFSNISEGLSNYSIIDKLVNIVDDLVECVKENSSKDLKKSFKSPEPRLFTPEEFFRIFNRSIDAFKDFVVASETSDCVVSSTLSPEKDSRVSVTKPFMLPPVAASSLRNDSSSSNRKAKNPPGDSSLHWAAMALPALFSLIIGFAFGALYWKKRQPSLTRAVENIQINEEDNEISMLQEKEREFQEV
Respond numerically; units are % and should not be typed.

// Input: D14P mutant expressed as full length IgG4 antibody (antibody, V domains shown, Full length IgG4) VH: QVQLVQSGAELKKPGSSVKISCKSSGYAFSSQWMNWVKQRPGQGLEWIGQIYPGDDDTHYNDKFKGKATLTADKSTSTAYMELSSLTSEDSAVYFCSSSNWVGSYWGQGTLVTVSS VL: DVVMTQSPLSLPVTLGQPASISCKSSQSLLESDGNTYLNWLQQRPGQSPRRLIYLVDRLDLGVPDRFSGSGSGTDFTLKISRVEAEDVGVYYCWQGTDLPQTFGGGTKVEIK . Output its CCL2 Expression as Percentage of Positive Control only.
46.8

// Input: B104P mutant expressed as full length IgG4 antibody (antibody, V domains shown, Full length IgG4) VH: QVQLVQSGAELKKPGSSVKISCKSSGYAFSSQWMNWVKQRPGQGLEWIGQIYPDDGDTHYNDKFKGKATLTADKSTSTAYMELSSLTSEDSAVYFCSSSNWVGSYWGQGTLVTVSS VL: DVVMTQSPLSLPVTLGQPASISCKSSQSLLEADGNTYLNWLQQRPGQSPRRLIYLVDRLDSGVPDRFSGSGSGTDFTLKISRVEAEDVGVYYCWQGTDLPQTFGGGTKVEIK . Output its CCL2 Expression as Percentage of Positive Control only.
31.7

// Input: H83P mutant expressed as full length IgG4 antibody (antibody, V domains shown, Full length IgG4) VH: QVQLVQSGAELKKPGSSVKISCKSSGYAFSSQWMNWVKQRPGQGLEWIGQIYPGDGDIHYNDKFKGKATLTADKSTSTAYMELSSLTSEDSAVYFCSSSNWVGSYWGQGTLVTVSS VL: DVVMTQSPLSLPVTLGQPASISCKSSQSLLESDGNTYLNWLQQRPGQSPRRLIYLVDRLDSGVPDRFSGSGSGTDFTLKISRVEAEDVGVYYCWQGTDLPQTFGGGTKVEIK . Output its CCL2 Expression as Percentage of Positive Control only.
56.2
